Data credit: the supplement of paper PMC10567573

For each of the variants below, state its protein stability index.
B1: C10orf62 (parent)
chain: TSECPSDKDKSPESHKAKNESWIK

variants of: B1; experiment: protein stability index of a GFP-peptide fusion (GPS, HEK-293T) (PSI 1-6); higher = more stable; conditions: c terminus: a fixed tail appended;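 further: lentivirally expressed fusions sorted by FACS into six bins by GFP to DsRed ratio, PSI derived from sequencing read proportions per bin multiplied by bin number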
Lab note: record just the number, no unit beside it.

Task: If you can, please state the reported protein stability index value of S14V .
Output: 3.98

Task: Consider the variant N19L and give its measured protein stability index.
Output: 3.3

Task: Look up protein stability index: D7L
Output: 2.81

Task: Query: protein stability index; subject: H15T
Output: 2.99

Task: Would you mind telling me what protein stability index value was observed for S11H ?
Output: 3.01

Task: # query: protein stability index of entry N19W
Output: 3.46

Task: Recorded protein stability index of A17C , please.
Output: 3.6

Task: // returns reported protein stability index for input K16F
Output: 3.85

Task: Form field: reported protein stability index of K18V
Output: 3.56

Task: What protein stability index value was documented for this variant, K18M ?
Output: 3.77

Task: Value lookup for protein stability index; key = K10S
Output: 3.41

Task: GET /values?readout=protein stability index&item= K24R
Output: 3.92

Task: Give its protein stability index value. Item: D7G
Output: 3.38

Task: State the recorded protein stability index for this entry: I23W
Output: 5.11

Task: For the variant shown here, E3M , give the reported protein stability index.
Output: 2.88

Task: Endpoint output: protein stability index of P12N . Value?
Output: 3.3

Task: I'd like to know its protein stability index. The variant in question is K18G
Output: 3.9

Task: Would you mind telling me what protein stability index value was observed for S14K ?
Output: 2.82

Task: Consider the variant shown here: N19H What is its recorded protein stability index?
Output: 2.42

Task: Report protein stability index for T1I please.
Output: 3.04

Task: Reported protein stability index for I23Q : what is it?
Output: 2.89

Task: Quick one: protein stability index of K8Y ?
Output: 3.26
